system: Escherichia coli TOP10; assay: shrunken log2 fold change of peptide-encoding DNA abundance (4.5 h post-induction vs induction); higher = less antimicrobial activity (less host growth inhibition); settings: time post-induction: 4.5 h; library: site-saturation at positions 5, 18, 19, 20
READOUT NAME: shrunken log2 fold change

Use the examples below as a reference point.
[[record]]
polymer_sequence = "RRIRLRPPRLPRPRPRPNINPRP"
system = "Escherichia coli TOP10"
reading = -0.686

[[record]]
polymer_sequence = "RRIRYRPPRLPRPRPRPFYAPRP"
system = "Escherichia coli TOP10"
reading = -0.642

[[record]]
polymer_sequence = "RRIRMRPPRLPRPRPRPGYYPRP"
system = "Escherichia coli TOP10"
reading = -0.0156

[[record]]
polymer_sequence = "RRIRQRPPRLPRPRPRPNDCPRP"
system = "Escherichia coli TOP10"
reading = 0.0531

[[record]]
polymer_sequence = "RRIRDRPPRLPRPRPRPGPTPRP"
system = "Escherichia coli TOP10"
reading = 0.355


Quick one: shrunken log2 fold change for `RRIRIRPPRLPRPRPRPYMTPRP` ? -1.6

Quick one: shrunken log2 fold change for `RRIRCRPPRLPRPRPRPEQDPRP` ? -0.0796

Quick one: shrunken log2 fold change for `RRIRMRPPRLPRPRPRPLTRPRP` ? 0.608

Quick one: shrunken log2 fold change for `RRIRHRPPRLPRPRPRPQTKPRP` ? -0.0667

Quick one: shrunken log2 fold change for `RRIRERPPRLPRPRPRPFLCPRP` ? -0.143

----------
tested on: Escherichia coli TOP10; test: shrunken log2 fold change of peptide-encoding DNA abundance (4.5 h post-induction vs induction); higher = less antimicrobial activity (less host growth inhibition); details: time post-induction: 4.5 h; library: site-saturation at positions 5, 18, 19, 20
READOUT NAME: shrunken log2 fold change

Use the examples below as a reference point.
[[record]]
polymer_sequence = "RRIRLRPPRLPRPRPRPATAPRP"
readout_name = "shrunken log2 fold change"
reading = 0.214

[[record]]
polymer_sequence = "RRIRGRPPRLPRPRPRPAKMPRP"
readout_name = "shrunken log2 fold change"
reading = 0.538

[[record]]
polymer_sequence = "RRIRGRPPRLPRPRPRPTCYPRP"
readout_name = "shrunken log2 fold change"
reading = 0.34


Could you share what shrunken log2 fold change was measured for `RRIRCRPPRLPRPRPRPNGRPRP` , tested on Escherichia coli TOP10? 0.0604

Could you share what shrunken log2 fold change was measured for `RRIRSRPPRLPRPRPRPFVRPRP` , tested on Escherichia coli TOP10? 0.0631

Could you share what shrunken log2 fold change was measured for `RRIRCRPPRLPRPRPRPVPVPRP` , tested on Escherichia coli TOP10? 0.0927

Could you share what shrunken log2 fold change was measured for `RRIRPRPPRLPRPRPRPYAPPRP` , tested on Escherichia coli TOP10? -0.207

Could you share what shrunken log2 fold change was measured for `RRIRQRPPRLPRPRPRPVLWPRP` , tested on Escherichia coli TOP10? 0.193

Could you share what shrunken log2 fold change was measured for `RRIRFRPPRLPRPRPRPAIKPRP` , tested on Escherichia coli TOP10? -0.328

----------
system: Escherichia coli TOP10; assay: shrunken log2 fold change of peptide-encoding DNA abundance (4.5 h post-induction vs induction); higher = less antimicrobial activity (less host growth inhibition); conditions: time post-induction: 4.5 h; library: site-saturation at positions 5, 18, 19, 20
Label scheme, based on shrunken log2 fold change: bucket A: < -0.2; bucket B: ≥ -0.2 and < 0.04; bucket C: ≥ 0.04

Reference set (10 entries):
[[record]]
polymer_sequence = "RRIRNRPPRLPRPRPRPASYPRP"
category = "bucket B"

[[record]]
polymer_sequence = "RRIRNRPPRLPRPRPRPHIIPRP"
category = "bucket B"

[[record]]
polymer_sequence = "RRIRKRPPRLPRPRPRPGKKPRP"
category = "bucket B"

[[record]]
polymer_sequence = "RRIRKRPPRLPRPRPRPAQTPRP"
category = "bucket C"

[[record]]
polymer_sequence = "RRIRFRPPRLPRPRPRPWTLPRP"
category = "bucket A"

[[record]]
polymer_sequence = "RRIRYRPPRLPRPRPRPNWDPRP"
category = "bucket A"

[[record]]
polymer_sequence = "RRIRVRPPRLPRPRPRPMQVPRP"
category = "bucket C"

[[record]]
polymer_sequence = "RRIRSRPPRLPRPRPRPFQCPRP"
category = "bucket A"

[[record]]
polymer_sequence = "RRIRSRPPRLPRPRPRPMGQPRP"
category = "bucket B"

[[record]]
polymer_sequence = "RRIRERPPRLPRPRPRPNHDPRP"
category = "bucket A"


Which band does `RRIRFRPPRLPRPRPRPWMVPRP` fall in? bucket A

Which band does `RRIRNRPPRLPRPRPRPIMMPRP` fall in? bucket B

Which band does `RRIRIRPPRLPRPRPRPFSIPRP` fall in? bucket A

----------
system: Escherichia coli TOP10; assay: shrunken log2 fold change of peptide-encoding DNA abundance (4.5 h post-induction vs induction); higher = less antimicrobial activity (less host growth inhibition); settings: time post-induction: 4.5 h; library: site-saturation at positions 5, 18, 19, 20
READOUT NAME: shrunken log2 fold change
Enter the number alone.

[[record]]
polymer_sequence = "RRIRDRPPRLPRPRPRPKVDPRP"
readout_name = "shrunken log2 fold change"
reading = -0.118


Quick one: shrunken log2 fold change for `RRIRDRPPRLPRPRPRPYQDPRP` ? -0.00141

Quick one: shrunken log2 fold change for `RRIRKRPPRLPRPRPRPVKAPRP` ? -0.0242

Quick one: shrunken log2 fold change for `RRIRKRPPRLPRPRPRPGNKPRP` ? -0.0985

Quick one: shrunken log2 fold change for `RRIRCRPPRLPRPRPRPECGPRP` ? 0.436

Quick one: shrunken log2 fold change for `RRIRDRPPRLPRPRPRPKVWPRP` ? 0.437

Quick one: shrunken log2 fold change for `RRIRRRPPRLPRPRPRPNDMPRP` ? 0.13

Quick one: shrunken log2 fold change for `RRIRSRPPRLPRPRPRPRYPPRP` ? -0.036

----------
system: Escherichia coli TOP10; assay: shrunken log2 fold change of peptide-encoding DNA abundance (4.5 h post-induction vs induction); higher = less antimicrobial activity (less host growth inhibition); settings: time post-induction: 4.5 h; library: site-saturation at positions 5, 18, 19, 20
READOUT NAME: shrunken log2 fold change
Enter the number alone.

Use the examples below as a reference point.
[[record]]
polymer_sequence = "RRIRPRPPRLPRPRPRPRTGPRP"
system = "Escherichia coli TOP10"
readout_name = "shrunken log2 fold change"
reading = 1.03

[[record]]
polymer_sequence = "RRIRIRPPRLPRPRPRPSACPRP"
system = "Escherichia coli TOP10"
readout_name = "shrunken log2 fold change"
reading = -0.561

[[record]]
polymer_sequence = "RRIRGRPPRLPRPRPRPSEIPRP"
system = "Escherichia coli TOP10"
readout_name = "shrunken log2 fold change"
reading = -0.193

[[record]]
polymer_sequence = "RRIRGRPPRLPRPRPRPYPEPRP"
system = "Escherichia coli TOP10"
readout_name = "shrunken log2 fold change"
reading = 0.0556

[[record]]
polymer_sequence = "RRIRWRPPRLPRPRPRPRYKPRP"
system = "Escherichia coli TOP10"
readout_name = "shrunken log2 fold change"
reading = -0.104

[[record]]
polymer_sequence = "RRIRLRPPRLPRPRPRPVCEPRP"
system = "Escherichia coli TOP10"
readout_name = "shrunken log2 fold change"
reading = 0.39

[[record]]
polymer_sequence = "RRIRFRPPRLPRPRPRPVTVPRP"
system = "Escherichia coli TOP10"
readout_name = "shrunken log2 fold change"
reading = -0.264

[[record]]
polymer_sequence = "RRIRPRPPRLPRPRPRPQEMPRP"
system = "Escherichia coli TOP10"
readout_name = "shrunken log2 fold change"
reading = 0.0716


Could you share what shrunken log2 fold change was measured for `RRIRERPPRLPRPRPRPVNRPRP` , tested on Escherichia coli TOP10? -0.294

Could you share what shrunken log2 fold change was measured for `RRIRGRPPRLPRPRPRPPDSPRP` , tested on Escherichia coli TOP10? 0.952

Could you share what shrunken log2 fold change was measured for `RRIRWRPPRLPRPRPRPMQRPRP` , tested on Escherichia coli TOP10? 0.667

Could you share what shrunken log2 fold change was measured for `RRIRWRPPRLPRPRPRPQLLPRP` , tested on Escherichia coli TOP10? 0.115

Could you share what shrunken log2 fold change was measured for `RRIRMRPPRLPRPRPRPDLSPRP` , tested on Escherichia coli TOP10? 1.58

Could you share what shrunken log2 fold change was measured for `RRIRCRPPRLPRPRPRPAARPRP` , tested on Escherichia coli TOP10? 0.392

Could you share what shrunken log2 fold change was measured for `RRIRFRPPRLPRPRPRPVDAPRP` , tested on Escherichia coli TOP10? 0.183

----------
test system: Escherichia coli TOP10; assay: shrunken log2 fold change of peptide-encoding DNA abundance (4.5 h post-induction vs induction); higher = less antimicrobial activity (less host growth inhibition); conditions: time post-induction: 4.5 h; library: site-saturation at positions 5, 18, 19, 20;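 further: peptides expressed intracellularly from a pBAD plasmid library in pooled LB shake-flask culture, induced with 0.3% L-arabinose, DNA abundance read by NGS, three biological replicates, DESeq2 with apeglm shrinkage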
READOUT NAME: shrunken log2 fold change
Enter the number alone.

[[record]]
polymer_sequence = "RRIRSRPPRLPRPRPRPRDWPRP"
reading = 0.4

[[record]]
polymer_sequence = "RRIRCRPPRLPRPRPRPWWFPRP"
reading = 0.0459


Quick one: shrunken log2 fold change for `RRIRSRPPRLPRPRPRPGRKPRP` ? 0.133

Quick one: shrunken log2 fold change for `RRIRCRPPRLPRPRPRPIMVPRP` ? -0.115

Quick one: shrunken log2 fold change for `RRIRARPPRLPRPRPRPCHGPRP` ? -0.214

Quick one: shrunken log2 fold change for `RRIRTRPPRLPRPRPRPWGMPRP` ? -0.126

Quick one: shrunken log2 fold change for `RRIRRRPPRLPRPRPRPWLFPRP` ? 0.383

Quick one: shrunken log2 fold change for `RRIRQRPPRLPRPRPRPQWGPRP` ? -0.161

Quick one: shrunken log2 fold change for `RRIRLRPPRLPRPRPRPVWEPRP` ? 0.0556

Quick one: shrunken log2 fold change for `RRIRERPPRLPRPRPRPCIKPRP` ? -0.363

Quick one: shrunken log2 fold change for `RRIRMRPPRLPRPRPRPYASPRP` ? -0.0515

Quick one: shrunken log2 fold change for `RRIRERPPRLPRPRPRPLVCPRP` ? 0.00932

Quick one: shrunken log2 fold change for `RRIRARPPRLPRPRPRPQHEPRP` ? 0.0966

Quick one: shrunken log2 fold change for `RRIRERPPRLPRPRPRPVSRPRP` ? 0.23

Quick one: shrunken log2 fold change for `RRIRTRPPRLPRPRPRPVTRPRP` ? 0.229

Taken from the supplement of paper PMC9112550.
